- Tested on: Tyk2-JH1JH2 (Homo sapiens (Human), UniProt P29597, C1142A/C936A)
- Sequence (P29597 580-1182 C936A/C1142A): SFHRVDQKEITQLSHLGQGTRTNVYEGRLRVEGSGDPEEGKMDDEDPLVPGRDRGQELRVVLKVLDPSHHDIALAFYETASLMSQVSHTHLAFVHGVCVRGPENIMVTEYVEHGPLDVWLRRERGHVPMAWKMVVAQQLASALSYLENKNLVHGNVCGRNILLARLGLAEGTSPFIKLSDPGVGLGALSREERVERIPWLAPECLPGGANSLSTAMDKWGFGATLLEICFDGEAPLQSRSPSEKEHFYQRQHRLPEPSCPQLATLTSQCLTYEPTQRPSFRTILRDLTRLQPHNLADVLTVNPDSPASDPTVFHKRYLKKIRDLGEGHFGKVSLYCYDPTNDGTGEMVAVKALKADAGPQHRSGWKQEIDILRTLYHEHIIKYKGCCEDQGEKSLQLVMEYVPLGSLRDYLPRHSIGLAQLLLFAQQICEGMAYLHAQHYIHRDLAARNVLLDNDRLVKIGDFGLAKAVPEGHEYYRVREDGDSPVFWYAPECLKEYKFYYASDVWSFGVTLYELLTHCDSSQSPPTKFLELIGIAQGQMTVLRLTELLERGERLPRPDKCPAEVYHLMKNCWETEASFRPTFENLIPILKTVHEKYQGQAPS
- Experiment notes: Enzymatic inhibition assay (RapidFire HTMS), Tyk2
- Run conditions: 50 μM ATP, 200 μM substrate
pIC50: −log10 of the molar value.
Quantity: pIC50

>>> readout_number("N#CC[C@H]1CC[C@H](n2c(CC(=O)N3CCCC3)nc3cnc4[nH]ccc4c32)CC1")
8.38
>>> readout_number("COCCNC(=O)OCc1nc2cnc3[nH]ccc3c2n1[C@H]1CC[C@H](CC#N)CC1")
7.70
>>> readout_number("N#CC[C@H]1CC[C@H](n2c(CC(=O)NCc3ccncn3)nc3cnc4[nH]ccc4c32)CC1")
8.55
>>> readout_number("CN1CCC(NC(=O)c2nc3cnc4[nH]ccc4c3n2[C@H]2CC[C@H](CC#N)CC2)CC1")
7.98

(a) N#CC[C@H]1CC[C@H](n2c(CC(=O)NC34CCC(CO)(CC3)C4)nc3cnc4[nH]ccc4c32)CC1
(b) CC(C)(O)CC(=O)NCc1nc2cnc3[nH]ccc3c2n1[C@H]1CC[C@H](CC#N)CC1
Which has the smaller recorded pIC50, a or b ? Return value: the label identifying the chosen record.
b
(b: 7.29, a: 7.98)

(a) N#CC[C@H]1CC[C@H](n2c(CC(=O)Nc3ccc(C(O)(C(F)(F)F)C(F)(F)F)cc3)nc3cnc4[nH]ccc4c32)CC1
(b) N#CC[C@H]1CC[C@H](n2c(CC(=O)N3CCC(C(F)(F)F)CC3)nc3cnc4[nH]ccc4c32)CC1
(c) N#CC[C@H]1CC[C@H](n2c(CN/C(CC3CCCCC3)=N/O)nc3cnc4[nH]ccc4c32)CC1
Order the items by recorded pIC50; the first position goes to the largest value. Provide the ranking by listing each label in its place in the requested order.
b, c, a

(I) CSc1nccc(-c2nc3cnc4[nH]ccc4c3n2[C@H]2CC[C@H](CC#N)CC2)n1
(II) N#CC[C@H]1CC[C@H](n2c(CC(=O)Nc3ccncc3)nc3cnc4[nH]ccc4c32)CC1
(III) CC(C)(O)CNC(=O)Cc1nc2cnc3[nH]cc(Br)c3c2n1[C@H]1CC[C@H](CC#N)CC1
(IV) N#CC[C@H]1CC[C@H](n2c(-c3ccc(C(=O)c4ccc(CO)cc4)cc3)nc3cnc4[nH]ccc4c32)CC1
Hey, quick one: sort these by pIC50, largest value first please. To answer, write out the labels according to the requested order.
II, I, IV, III

(A) N#CC[C@H]1CC[C@H](n2c(CN/C(=N/O)C3CCCCC3)nc3cnc4[nH]ccc4c32)CC1
(B) Cc1nc(C)c(-c2nc3cnc4[nH]ccc4c3n2[C@H]2CC[C@H](CC#N)CC2)s1
// compare measured pIC50 between A and B ; output the lower one Field: selected label. Fill in the label of the entry you choose.
B

---

- Tested on: Tyk2-JH1JH2 (Homo sapiens (Human), UniProt P29597, C1142A/C936A)
- Experiment notes: Enzymatic inhibition assay (RapidFire HTMS), Tyk2
- Run conditions: 50 μM ATP, 200 μM substrate
Quantity: IC50 (nM)

Known results for compounds:
>>> readout_number("N#CC[C@H]1CC[C@H](n2c(-c3cc[nH]n3)nc3cnc4[nH]ccc4c32)CC1")
3.4
>>> readout_number("N#CC[C@H]1CC[C@H](n2c(CC(=O)NCC3(O)CC3)nc3cnc4[nH]ccc4c32)CC1")
5.4

(I) N#CC[C@H]1CC[C@H](n2c(-c3cnc(N)nc3)nc3cnc4[nH]ccc4c32)CC1
(II) N#CC[C@H]1CC[C@H](n2c(CC(=O)NCC3(O)COC3)nc3cnc4[nH]ccc4c32)CC1
(III) COCCNC(=O)Cc1nc2cnc3[nH]ccc3c2n1[C@H]1CC[C@H](CC#N)CC1
(IV) CC(=O)N1CC(c2nc3cnc4[nH]ccc4c3n2[C@H]2CC[C@H](CC#N)CC2)C1
Number of compounds to sort: 4. Sort criterion: IC50, ascending. Your task in answering is to list the labels in the requested order.
II, I, III, IV
(II: 3.3 nM, I: 5.8 nM, III: 19.1 nM, IV: 87.9 nM)

---

- Tested on: Tyk2-JH1JH2 (Homo sapiens (Human), UniProt P29597, C1142A/C936A)
- Experiment notes: Enzymatic inhibition assay (RapidFire HTMS), Tyk2
- Run conditions: 50 μM ATP, 200 μM substrate
- Source text: LC/MS grade Water and Acetonitrile (ACN), were purchased from HoneyWell, Burdick & Jackson (Muskegon, Mich., USA). Dimethylsulfoxide 99.8% (DMSO) and Trifluoroacetic Acid 99.5% (TFA) were purchased from EMD Chemical (Gibbstown, N.J., USA). Adenosine triphosphate (ATP), 4-Morpholinepropanesulfonic acid (MOPS), Magnesium chloride (MgCl2), ethylenediaminetetraacetic acid (EDTA), dithiothreitol (DTT), formic acid >95% (FA) and Tween-20 were purchased from Sigma (St Louis, Mo., USA). […]
Quantity: IC50 (nM)

Study these solved cases before continuing.
>>> readout_number("N#CC[C@H]1CC[C@H](n2c(CC(=O)N3CCS(=O)(=O)CC3)nc3cnc4[nH]ccc4c32)CC1 [Ex. 67]")
3.8
>>> readout_number("N#CC[C@H]1CC[C@H](n2c(CC(=O)NC3CC4CCC3C4)nc3cnc4[nH]ccc4c32)CC1 (stereo partly shown) [Ex. 78]")
13.4

(a) N#CC[C@H]1CC[C@H](n2c(CC(=O)NCc3ccc(OC(F)F)cc3)nc3cnc4[nH]ccc4c32)CC1 [Ex. 79]
(b) COC(C)(C)CNC(=O)Cc1nc2cnc3[nH]ccc3c2n1[C@H]1CC[C@H](CC#N)CC1 [Ex. 71]
Form: Entry with minimum IC50 (choose one): a / b Kindly state the label of the option you pick.
b

---

- Experiment notes: In vivo intracolonic (i.c.) dosing: plasma and colon tissue concentrations (Protocol 3)
- Design: species or system female C57BL/6 mice
- Run conditions: female, C57BL/6, mouse, plasma, other: intracolonic (i.c.); mice, 5 mg/kg i.c., Time = 0.5 h; read-out: Plasma Concentration After i.c. Dosing, Mean
We begin with a simple list: items and their reported concentration at 0.5 h.
Just the number in ng/mL, nothing appended.

Study these solved cases before continuing.
>>> readout_number("CC(C)(O)CNC(=O)Cc1nc2cnc3[nH]ccc3c2n1[C@H]1CC[C@H](CC#N)CC1")
2.5
>>> readout_number("N#CC[C@H]1CC[C@H](n2c(CC(=O)NCC3CC3)nc3cnc4[nH]ccc4c32)CC1")
1.5

Look up concentration at 0.5 h: `N#CCCNC(=O)Cc1nc2cnc3[nH]ccc3c2n1[C@H]1CC[C@H](CC#N)CC1`
3.8

---

- Tested on: P-gp (MDR1)
- Experiment notes: MDCK-MDR1 permeability assay
- Type: in vitro ADME
- Run conditions: dog, MDCK-MDR1, pH 7.4, @ 5 μM, basolateral to apical
Quantity: Papp B→A at 60 min, 5 μM (×10⁻⁶ cm/s)

Check out these entries, answers already filled in.
>>> readout_number("N#CCCNC(=O)Cc1nc2cnc3[nH]ccc3c2n1[C@H]1CC[C@H](CC#N)CC1")
1.3
>>> readout_number("N#CC[C@H]1CC[C@H](n2c(CC(=O)NCC3(O)CCC3)nc3cnc4[nH]ccc4c32)CC1")
1.7
>>> readout_number("N#CCC1CCC(n2c(-c3c[nH]cn3)nc3cnc4[nH]ccc4c32)CC1 (centres unmarked)")
4.8
>>> readout_number("N#CC[C@H]1CC[C@H](n2c(CC(=O)NC3CCOCC3)nc3cnc4[nH]ccc4c32)CC1")
1.8
>>> readout_number("N#CCC12CCC(NC(=O)Cc3nc4cnc5[nH]ccc5c4n3[C@H]3CC[C@H](CC#N)CC3)(CC1)C2")
7.1
>>> readout_number("N#CC[C@H]1CC[C@H](n2c(CC(=O)NCC3CCOCC3)nc3cnc4[nH]ccc4c32)CC1")
2.5

(P) CC(C)(O)CNC(=O)Cc1nc2cnc3[nH]ccc3c2n1[C@H]1CC[C@H](CC#N)CC1
(Q) Cn1cc(NC(=O)Cc2nc3cnc4[nH]ccc4c3n2[C@H]2CC[C@H](CC#N)CC2)cn1
Hi! Which is lower in terms of Papp B→A at 60 min, 5 μM, the first one P or the second one Q ? When you have decided, please share the label of that item.
P
(P: 0.9 ×10⁻⁶ cm/s, Q: 1.8 ×10⁻⁶ cm/s)

---

- Tested on: Tyk2-JH1JH2 (Homo sapiens (Human), UniProt P29597, C1142A/C936A)
- Experiment notes: Enzymatic inhibition assay (RapidFire HTMS), Tyk2
- Run conditions: 50 μM ATP, 200 μM substrate
- Text: LC/MS grade Water and Acetonitrile (ACN), were purchased from HoneyWell, Burdick & Jackson (Muskegon, Mich., USA). Dimethylsulfoxide 99.8% (DMSO) and Trifluoroacetic Acid 99.5% (TFA) were purchased from EMD Chemical (Gibbstown, N.J., USA). Adenosine triphosphate (ATP), 4-Morpholinepropanesulfonic acid (MOPS), Magnesium chloride (MgCl2), ethylenediaminetetraacetic acid (EDTA), dithiothreitol (DTT), formic acid >95% (FA) and Tween-20 were purchased from Sigma (St Louis, Mo., USA). […]
pIC50: −log10 of the molar value.
Quantity: pIC50

>>> readout_number("N#CC[C@H]1CC[C@H](n2c(COC(=O)Nc3ccccc3)nc3cnc4[nH]ccc4c32)CC1")
7.95

(P) CS(=O)(=O)c1ccc(-c2ccc(-c3nc4cnc5[nH]ccc5c4n3[C@H]3CC[C@H](CC#N)CC3)cc2)cc1
(Q) N#CC[C@H]1CC[C@H](n2c(CC(=O)N3CC[C@@H](O)C3)nc3cnc4[nH]ccc4c32)CC1
(R) N#CC[C@H]1CC[C@H](n2c(-c3ccc(C#N)nc3)nc3cnc4[nH]ccc4c32)CC1
Could you please sort these 3 entries by pIC50 from high to low? List the labels according to the requested ordering.
Q, P, R
